Measured pIC50, listed per entry.
# Tested on: NCI-H460
# ASSAY: Anticancer activity against human NCI-H460 cells by MTT assay
# Type: functional, cell-based
Scale for pIC50: -log10 of concentration given in mol/L; no unit attached.

These recorded examples may help you get a feel for the data.
Could you tell me which pIC50 is on file for C=C1C(=O)[C@]23[C@H](OC(=O)c4ccc(N(CCCl)CCCl)cc4)[C@H]1CC[C@H]2[C@@]12CO[C@@]3(O)[C@@H](O)[C@@H]1C(C)(C)CC[C@@H]2O ?
5.63

Subsequent entry: C=C1C(=O)[C@]23[C@H](O)[C@H]1CC[C@H]2[C@@]12CO[C@]3(O)[C@@H](O)[C@@H]1C(C)(C)CC[C@@H]2O
4.77

Subsequent entry: C=C1C(=O)[C@]23[C@H](OC(=O)CCC(=O)N[C@@H](Cc4ccc(N(CCCl)CCCl)cc4)C(=O)OC)[C@H]1CC[C@H]2[C@@]12CO[C@@]3(O)[C@@H](O)[C@@H]1C(C)(C)CC[C@@H]2O
4.55

Next:
Could you tell me which pIC50 is on file for C=C1C(=O)[C@]23[C@H](OC(=O)CCCc4ccc(N(CCCl)CCCl)cc4)[C@H]1CC[C@H]2[C@@]12CO[C@@]3(O)[C@@H](O)[C@@H]1C(C)(C)CC[C@@H]2O ?
5.32

* * *

# ASSAY: Cytotoxicity against human L02 cells by MTT assay
# Assay type: cell-based
Measured IC50, listed per entry.
Answer with the number, then the unit.

Could you tell me which IC50 is on file for O=C(O)CCCc1ccc(N(CCCl)CCCl)cc1 [CHLORAMBUCIL] ?
106 µM

Next:
Could you tell me which IC50 is on file for C=C1C(=O)[C@]23[C@H](OC(=O)CCCc4ccc(N(CCCl)CCCl)cc4)[C@H]1CC[C@H]2[C@@]12CO[C@@]3(O)[C@@H](O)[C@@H]1C(C)(C)CC[C@@H]2O ?
9.62 µM

Subsequent entry: C=C1C(=O)[C@]23[C@H](O)[C@H]1CC[C@H]2[C@@]12CO[C@]3(O)[C@@H](O)[C@@H]1C(C)(C)CC[C@@H]2O [ORIDONIN]
17.8 µM

Subsequent entry: C=C1C(=O)[C@]23[C@H](OC(=O)c4ccc(N(CCCl)CCCl)cc4)[C@H]1CC[C@H]2[C@@]12CO[C@@]3(O)[C@@H](O)[C@@H]1C(C)(C)CC[C@@H]2O
4.03 µM

* * *

Measured pIC50, listed per entry.
# ASSAY: Anticancer activity against ABCB1-overexpressing human SW620/AD300 cells by MTT assay
# Type: functional, cell-based
# REPORTED_CONDITIONS: SW-620
Scale for pIC50: -log10 of concentration given in mol/L; no unit attached.

Could you tell me which pIC50 is on file for C=C1C(=O)[C@]23[C@H](OC(=O)c4ccc(N(CCCl)CCCl)cc4)[C@H]1CC[C@H]2[C@@]12CO[C@@]3(O)[C@@H](O)[C@@H]1C(C)(C)CC[C@@H]2O ?
5.73

Next:
Could you tell me which pIC50 is on file for C=C1C(=O)[C@]23[C@H](OC(=O)CCC(=O)N[C@@H](Cc4ccc(N(CCCl)CCCl)cc4)C(=O)OC)[C@H]1CC[C@H]2[C@@]12CO[C@@]3(O)[C@@H](O)[C@@H]1C(C)(C)CC[C@@H]2O ?
4.83

Subsequent entry: C=C1C(=O)[C@]23[C@H](OC(=O)CCCc4ccc(N(CCCl)CCCl)cc4)[C@H]1CC[C@H]2[C@@]12CO[C@@]3(O)[C@@H](O)[C@@H]1C(C)(C)CC[C@@H]2O
5.64

Subsequent entry: C=C1C(=O)[C@]23[C@H](O)[C@H]1CC[C@H]2[C@@]12CO[C@]3(O)[C@@H](O)[C@@H]1C(C)(C)CC[C@@H]2O [ORIDONIN]
5.33

* * *

# Test system: MGC-803
# ASSAY: Antiproliferative activity against human MGC803 cells assessed as growth inhibition after 72 hrs by MTT assay
# Type: functional, cell-based
# REPORTED_CONDITIONS: MGC-803, 72 h
Measured IC50, listed per entry.
Please reply with the bare figure in µM and do not write the unit itself.

Could you tell me which IC50 is on file for C=C1C(=O)[C@]23[C@H](OC(=O)c4ccc(N(CCCl)CCCl)cc4)[C@H]1CC[C@H]2[C@@]12CO[C@@]3(O)[C@@H](O)[C@@H]1C(C)(C)CC[C@@H]2OC(C)=O ?
3.76

Subsequent entry: C=C1C(=O)[C@]23[C@H](OC(=O)CCCc4ccc(N(CCCl)CCCl)cc4)[C@H]1CC[C@H]2[C@@]12CO[C@@]3(O)[C@@H](O)[C@@H]1C(C)(C)CC[C@@H]2O
2.02

Next:
Could you tell me which IC50 is on file for O=C(O)CCCc1ccc(N(CCCl)CCCl)cc1 ?
134

* * *

# Test system: SW-620
# ASSAY: Anticancer activity against human SW620 cells by MTT assay
# Type: functional, cell-based
REPORTED_PROPERTY: pIC50
Scale for pIC50: -log10 of concentration given in mol/L; no unit attached.

These recorded examples may help you get a feel for the data.
Could you tell me which pIC50 is on file for C=C1C(=O)[C@]23[C@H](OC(=O)CCCc4ccc(N(CCCl)CCCl)cc4)[C@H]1CC[C@H]2[C@@]12CO[C@@]3(O)[C@@H](O)[C@@H]1C(C)(C)CC[C@@H]2O ?
5.57

Subsequent entry: C=C1C(=O)[C@]23[C@H](OC(=O)c4ccc(N(CCCl)CCCl)cc4)[C@H]1CC[C@H]2[C@@]12CO[C@@]3(O)[C@@H](O)[C@@H]1C(C)(C)CC[C@@H]2O
5.71

Subsequent entry: C=C1C(=O)[C@]23[C@H](O)[C@H]1CC[C@H]2[C@@]12CO[C@]3(O)[C@@H](O)[C@@H]1C(C)(C)CC[C@@H]2O
5.20

# evaluate next
Could you tell me which pIC50 is on file for C=C1C(=O)[C@]23[C@H](OC(=O)CCC(=O)N[C@@H](Cc4ccc(N(CCCl)CCCl)cc4)C(=O)OC)[C@H]1CC[C@H]2[C@@]12CO[C@@]3(O)[C@@H](O)[C@@H]1C(C)(C)CC[C@@H]2O ?
4.86

* * *

# Tested on: MGC-803
# ASSAY: Antiproliferative activity against human MGC803 cells assessed as growth inhibition after 72 hrs by MTT assay
# Format: functional, cell-based
# REPORTED_CONDITIONS: MGC-803, 72 h
Measured IC50, listed per entry.
Answer with the number, then the unit.

These recorded examples may help you get a feel for the data.
What value of IC50 on MGC-803 does C=C1C(=O)[C@]23[C@H](OC(=O)[C@H](Cc4ccc(N(CCCl)CCCl)cc4)NC=O)[C@H]1CC[C@H]2[C@@]12CO[C@@]3(O)[C@@H](O)[C@@H]1C(C)(C)CC[C@@H]2O have?
7.1 µM

Subsequent entry: C=C1C(=O)[C@]23[C@H](OC(=O)CCC(=O)N[C@@H](Cc4ccc(N(CCCl)CCCl)cc4)C(=O)OC)[C@H]1CC[C@H]2[C@@]12CO[C@@]3(O)[C@@H](O)[C@@H]1C(C)(C)CC[C@@H]2OC(C)=O
4.71 µM

Subsequent entry: C=C1C(=O)[C@]23[C@H](OC(=O)CCCC(=O)N[C@@H](Cc4ccc(N(CCCl)CCCl)cc4)C(=O)OC)[C@H]1CC[C@H]2[C@@]12CO[C@@]3(O)[C@@H](O)[C@@H]1C(C)(C)CC[C@@H]2O
6.92 µM

Subsequent entry: C=C1C(=O)[C@]23[C@H](OC(=O)[C@H](Cc4ccc(N(CCCl)CCCl)cc4)NC(=O)OC(C)(C)C)[C@H]1CC[C@H]2[C@@]12CO[C@@]3(O)[C@@H](O)[C@@H]1C(C)(C)CC[C@@H]2O
6.72 µM

# evaluate next
What value of IC50 on MGC-803 does C=C1C(=O)[C@]23[C@H](OC(=O)c4ccc(N(CCCl)CCCl)cc4)[C@H]1CC[C@H]2[C@@]12CO[C@@]3(O)[C@@H](O)[C@@H]1C(C)(C)CCC2=O have?
1.6 µM

* * *

# Tested on: MGC-803
# ASSAY: Antiproliferative activity against human MGC803 cells assessed as growth inhibition after 72 hrs by MTT assay
# Type: functional, cell-based
# REPORTED_CONDITIONS: MGC-803, 72 h
Measured log10 IC50, listed per entry.
For clarity, the numbers are log10 values of IC50 expressed in µM.

What value of log10 IC50 on MGC-803 does C=C1C(=O)[C@]23[C@H](OC(=O)CCC(=O)N[C@@H](Cc4ccc(N(CCCl)CCCl)cc4)C(=O)OC)[C@H]1CC[C@H]2[C@@]12CO[C@@]3(O)[C@@H](O)[C@@H]1C(C)(C)CCC2=O have?
0.53

Next:
What value of log10 IC50 on MGC-803 does C=C1C(=O)[C@]23[C@H](OC(=O)c4ccc(N(CCCl)CCCl)cc4)[C@H]1CC[C@H]2[C@@]12CO[C@@]3(O)[C@@H](O)[C@@H]1C(C)(C)CC[C@@H]2O have?
0.04
